# target-or-system: α-melanocyte-stimulating hormone receptor (hMC4R) (Homo sapiens (Human))
# assay-notes: In vitro binding affinity assay using hMC4R (radioligand competition binding, [125I]-(Nle4, D-Phe7)-α-MSH)
# condition-notes: geometric mean, read-out: Ki (nM) geometric
# Experimental: The binding affinity of test compounds at the α-melanocyte-stimulating hormone receptor (hMC4R) was assessed using a radioligand competition binding assay. […] Compounds were solubilized in 100% dimethyl sulfoxide (DMSO) to a concentration of 30 mM. […] The exact concentration of radioligand used for each experiment was determined by liquid scintillation counting and adjusted if necessary. […] The raw data (expressed as counts per minute) were analyzed using ActivityBase (IDBS Data Management Software). […]
observed-property: Ki (nM)

A = COc1cc([C@@H](C)C(=O)N2CC[C@@]3(CCc4cc(-c5cc6onc(C)c6cc5C)c(C)nc4N3)C2)c(F)cn1 [Example 160]
B = Cc1nc2c(cc1-c1nc(C(F)F)n(C)n1)CC[C@@]1(CCN(C(=O)Cc3ccc(F)c(F)c3)C1)N2 [Example 121]
C = COc1cc([C@@H](C)C(=O)N2CC[C@@]3(CCc4cc(-c5ccc(C6CC6)cn5)c(C)nc4N3)C2)c(F)cn1 [Example 186]
D = COc1cc([C@@H](C)C(=O)N2CC[C@@]3(CCc4cc(-c5ccccn5)c(C)nc4N3)C2)c(F)cn1 [Example 140]
Inquiry: List the molecules shown above again, sorted by falling Ki values. Use the labels to give the requested order.
Reply text: A, C, D, B
(A: 200 nM, C: 19 nM, D: 6.3 nM, B: 0.49 nM)

---

# target-or-system: UniProtKB P32245
# assay-notes: In vitro binding affinity assay using hMC4R (radioligand competition binding, [125I]-(Nle4, D-Phe7)-α-MSH)
# condition-notes: geometric mean, read-out: Ki (nM) geometric
observed-property: Ki (nM)

COc1cc([C@@H](C)C(=O)N2CC[C@@]3(CCc4cc(-c5cnccn5)c(C)nc4N3)C2)c(F)cn1 :: 1.8

P = COc1ncc(F)c([C@@H](C)C(=O)N2CC[C@@]3(CCc4cc(-c5nnn(C)n5)c(C)nc4N3)C2)n1 (single isomer, unassigned)
Q = COc1cc([C@@H](C)C(=O)N2CC[C@@]3(CCc4cc(-c5cnn6cccnc56)c(C)nc4N3)C2)c(F)cn1
Inquiry: Smaller Ki value? Options are P and Q Respond with the label that goes with your answer.
Reply text: Q

---

# target-or-system: α-melanocyte-stimulating hormone receptor (hMC4R) (Homo sapiens (Human), UniProt P32245)
# Sequence (P32245 whole entry): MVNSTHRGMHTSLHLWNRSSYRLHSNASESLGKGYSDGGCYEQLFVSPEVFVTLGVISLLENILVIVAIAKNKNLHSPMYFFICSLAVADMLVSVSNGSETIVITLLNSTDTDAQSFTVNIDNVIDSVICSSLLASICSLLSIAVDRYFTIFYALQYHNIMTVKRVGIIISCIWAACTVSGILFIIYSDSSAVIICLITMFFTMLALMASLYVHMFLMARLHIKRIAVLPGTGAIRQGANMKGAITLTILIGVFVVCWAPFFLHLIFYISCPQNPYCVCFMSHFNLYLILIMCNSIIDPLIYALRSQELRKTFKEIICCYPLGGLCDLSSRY
# assay-notes: In vitro binding affinity assay using hMC4R (radioligand competition binding, [125I]-(Nle4, D-Phe7)-α-MSH)
# condition-notes: geometric mean, read-out: Ki (nM) geometric
observed-property: Ki (nM)

Solved entries:
COc1cc([C@@H](C)C(=O)N2CC[C@@]3(CCc4cc(-c5ccc6sc(C)nc6c5)c(C)nc4N3)C2)c(F)cn1 :: 81
COc1cc([C@@H](C)C(=O)N2CC[C@@]3(CCc4cc(-c5cncc(C6CC6)n5)c(C)nc4N3)C2)c(F)cn1 :: 59
Cc1nc2c(cc1-c1nnn(C)n1)CC[C@@]1(CCN(C(=O)C(C)c3ccc(C(F)(F)F)cc3)C1)N2 (single isomer, unassigned) :: 0.73

1 = COc1cc([C@@H](C)C(=O)N2CC[C@@]3(CCc4cc(C5CCOCC5)c(C)nc4N3)C2)c(F)cn1
2 = COc1cc([C@@H](C)C(=O)N2CC[C@@]3(CCc4cc(-c5cc(C)ns5)c(C)nc4N3)C2)c(F)cn1
3 = COc1cc([C@@H](C)C(=O)N2CC[C@@]3(CCc4cc(-c5nnc(N6CCCCC6)s5)c(C)nc4N3)C2)c(F)cn1
Inquiry: Order field: Ki | Direction: descending (largest first) Ranked list of labels, please, in the requested order.
Reply text: 3, 2, 1

---

# target-or-system: α-melanocyte-stimulating hormone receptor (hMC4R) (Homo sapiens (Human), UniProt P32245)
# assay-notes: In vitro binding affinity assay using hMC4R (radioligand competition binding, [125I]-(Nle4, D-Phe7)-α-MSH)
# condition-notes: geometric mean, read-out: Ki (nM) geometric
observed-property: Ki (nM)

COc1cc([C@@H](C)C(=O)N2CC[C@@]3(CCc4cc(-c5cccc(-c6nnc(C)o6)c5)c(C)nc4N3)C2)c(F)cn1 [Example 161] :: 47
COc1cc([C@@H](C)C(=O)N2CC[C@@]3(CCc4cc(-c5ccc(OC(F)(F)F)cn5)c(C)nc4N3)C2)c(F)cn1 [Example 180] :: 21
COc1cc([C@@H](C)C(=O)N2CC[C@@]3(CCc4cc(-c5nnn(C)n5)c(C)nc4N3)C2)ccn1 (single isomer, unassigned) [Example 125] :: 3.4

A = COc1cc([C@@H](C)C(=O)N2CC[C@@]3(CCc4cc(-c5cnc(C)cn5)c(C)nc4N3)C2)c(F)cn1 [Example 158]
B = COc1cc([C@@H](C)C(=O)N2CC[C@@]3(CCc4cc(-c5nccc(C(F)(F)F)n5)c(C)nc4N3)C2)c(F)cn1 [Example 143]
C = COc1cc([C@@H](C)C(=O)N2CC[C@@]3(CCc4cc(-c5cnn(C)n5)c(C)nc4N3)C2)c(F)cn1 [Example 118]
D = COc1cc([C@@H](C)C(=O)N2CC[C@@]3(CCc4cc(-c5nc(N6CCOCC6)n(C)n5)c(C)nc4N3)C2)c(F)cn1 [Example 187]
E = COc1cc([C@@H](C)C(=O)N2CC[C@@]3(CCc4cc(-c5cnn(C)c5)c(C)nc4N3)C2)c(Cl)cn1 (single isomer, unassigned) [Example 104]
Inquiry: Give the ascending ranking of the items by reported Ki. # output: labels, in the requested order
Reply text: E, C, B, A, D

---

# target-or-system: α-melanocyte-stimulating hormone receptor (hMC4R) (Homo sapiens (Human))
# assay-notes: In vitro binding affinity assay using hMC4R (radioligand competition binding, [125I]-(Nle4, D-Phe7)-α-MSH)
# condition-notes: geometric mean, read-out: Ki (nM) geometric mean
observed-property: Ki (nM)

Consider the following illustrative entries.
COc1cc([C@H](C)C(=O)N2CC[C@@]3(CCc4cc(-c5ncccn5)c(C)nc4N3)C2)c(F)cn1 [Example 28] :: 160
[2H]C([2H])([2H])Oc1cc([C@@H](C)C(=O)N2CC[C@@]3(CCc4cc(-c5ncccn5)c(C)nc4N3)C2)c(F)cn1 [Example 74] :: 1.3
COc1cnc(-c2cc3c(nc2C)N[C@@]2(CC3)CCN(C(=O)[C@H](C)c3cc(OC)ncc3F)C2)nc1 [Example 67] :: 2.5
COc1cc([C@@H](C)C(=O)N2CC[C@@]3(CCc4cc(-c5nnn(C)n5)c(C)nc4N3)C2)c(F)cn1 [Example 13] :: 0.6

1 = Cc1ccc2c(n1)N[C@@]1(CC2)CCN(C(=O)Cc2ccc(F)cc2)C1 (single isomer, unassigned) [Example 87]
2 = COc1cc([C@](C)(F)C(=O)N2CC[C@@]3(CCc4cc(-c5ncccn5)c(C)nc4N3)C2)ccn1 (single isomer, unassigned) [Example 46]
3 = COc1cc(OC)cc([C@@H](C)C(=O)N2CCC3(CCc4cc(-c5cnn(C)c5)c(C)nc4N3)C2)c1 (single isomer, unassigned) [Example 90]
4 = COc1ccc([C@@H](C)C(=O)N2CC[C@@]3(CCc4cc(-c5ncccn5)c(C)nc4N3)C2)cc1F (single isomer, unassigned) [Example 42]
5 = COc1cc([C@@H](C)C(=O)N2CC[C@@]3(CCc4cc(-c5nc(C(F)(F)F)n(C)n5)c(C)nc4N3)C2)c(Cl)cn1 (single isomer, unassigned) [Example 94]
Inquiry: Which order do these items take when sorted by rising Ki? List them. Provide the ranking by listing each label in its place in the requested order.
Reply text: 3, 5, 4, 2, 1
(3: 0.044 nM, 5: 1.2 nM, 4: 1.9 nM, 2: 3.5 nM, 1: 48 nM)
